system: biotinyl-Phe-oxazolone; assay: self-aminoacylation, catalytic enhancement (BFO) (fold over background); higher = more active; k-Seq, kA / k0A0; sequences stand for … in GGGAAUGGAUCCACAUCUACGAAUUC…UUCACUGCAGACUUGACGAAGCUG
Variants at the floor of the assay were thinned out.
recorded_endpoint: self-aminoacylation
No unit in the answer, only the number.

INPUT: Which value of self-aminoacylation has been reported for ACUCUCCUAGGUCAUCGGGUG [Fam2.2 aminoacylation ribozyme variant] in the records?
OUTPUT: 49.4

INPUT: Further, for GUACUUCAAACAAUCAGUCUG [Fam1A.1 aminoacylation ribozyme variant] ?
OUTPUT: 19.3

INPUT: Further, for CGUCUUCAAACAAUCGGUCUG [Fam1A.1 aminoacylation ribozyme variant] ?
OUTPUT: 79

INPUT: Further, for AUAACCCUGGUCAUCGAGUGC [Fam2.1 aminoacylation ribozyme variant] ?
OUTPUT: 4.44

INPUT: Further, for AUACACCUAUGUCAUCGGGUG [Fam2.2 aminoacylation ribozyme variant] ?
OUTPUT: 17.3

INPUT: Further, for CUACGUCAAACAAUCGUUCUG [Fam1A.1 aminoacylation ribozyme variant] ?
OUTPUT: 0.508

INPUT: Further, for ACUACCCUGGUCAGCGAGUGA [Fam2.1 aminoacylation ribozyme variant] ?
OUTPUT: 38.3

INPUT: Further, for AAGUGUGCUAAUGGUCGCAAG [Fam3.1 aminoacylation ribozyme variant] ?
OUTPUT: 2.15

INPUT: Further, for AAGUUUGCUGAUAGUCCCAAG [Fam3.1 aminoacylation ribozyme variant] ?
OUTPUT: 0.972

----------
test system: biotinyl-Trp-oxazolone; test: self-aminoacylation, catalytic enhancement (BWO) (fold over background); higher = more active; k-Seq, kA / k0A0; sequences stand for … in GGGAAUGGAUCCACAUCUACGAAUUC…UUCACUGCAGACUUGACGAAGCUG
Fewer inactive variants are shown than the library holds.
recorded_endpoint: self-aminoacylation
No unit in the answer, only the number.

INPUT: Which value of self-aminoacylation has been reported for AUUCAACUAGGUCAUUGGGUG [Fam2.2 aminoacylation ribozyme variant] in the records?
OUTPUT: 3.66

INPUT: Further, for GUUAUCCUGGUCAUCGAGUGA [Fam2.1 aminoacylation ribozyme variant] ?
OUTPUT: 13.1

INPUT: Further, for AUUCACCAAGGUCAUCGGGUG [Fam2.2 aminoacylation ribozyme variant] ?
OUTPUT: 8.61

INPUT: Further, for CCACACUUGAAGCAAUCGAUC [Fam1B.1 aminoacylation ribozyme variant] ?
OUTPUT: 0.348

INPUT: Further, for AUUACCCUGGUCCUAGAGUGA [Fam2.1 aminoacylation ribozyme variant] ?
OUTPUT: 10.8

INPUT: Further, for AUUCACCUAGGUCAUCGGGGC [Fam2.2 aminoacylation ribozyme variant] ?
OUTPUT: 5.91

INPUT: Further, for AGGUUCGCUAAUAGUCGCAAG [Fam3.1 aminoacylation ribozyme variant] ?
OUTPUT: 4.12

INPUT: Further, for AUAACUCUGGUCAUCGAGUGA [Fam2.1 aminoacylation ribozyme variant] ?
OUTPUT: 6.33

INPUT: Further, for AAACACUUCAAGCAAUCGGUC [Fam1B.1 aminoacylation ribozyme variant] ?
OUTPUT: 11.9
